test_target: human V2 receptor (Homo sapiens, UniProt P30518)
Construct: expressed in transfected cells; host or cells: CHO K1 (ATCC) expressing firefly luciferase under a CRE-responsive promoter
Sequence (P30518 whole entry): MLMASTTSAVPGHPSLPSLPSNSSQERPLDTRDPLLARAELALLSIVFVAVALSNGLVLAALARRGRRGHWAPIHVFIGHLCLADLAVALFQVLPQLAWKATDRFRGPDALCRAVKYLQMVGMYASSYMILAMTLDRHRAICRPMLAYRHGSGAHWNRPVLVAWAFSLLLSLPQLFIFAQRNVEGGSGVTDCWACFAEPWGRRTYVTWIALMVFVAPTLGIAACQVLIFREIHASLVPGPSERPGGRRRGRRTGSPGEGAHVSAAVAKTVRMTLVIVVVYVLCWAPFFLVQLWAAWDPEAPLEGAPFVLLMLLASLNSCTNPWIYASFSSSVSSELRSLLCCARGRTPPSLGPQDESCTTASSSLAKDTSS
method_description: Cellular in vitro assay for determining vasopressin receptor activity, V2 receptor cell line (CHO, CRE-luciferase)
Format: cell-based
condition_description: CHO cell line transfected with human V2 receptor; [Arg8]-vasopressin at EC50 concentration, 3 hours; read-out: IC50 hV2
IC50 listing for selected compounds.
Form field: result (number plus unit)

compound	endpoint_name	measured
O=C(Nc1ncccc1-n1cnc(Cn2nc(-c3ccc(Cl)cc3)n(C[C@H](O)C(F)(F)F)c2=O)n1)C1CCCCO1 (stereo partly shown) [Example 166]	IC50	2 µM
O=C(CC1CC1)Nc1cccnc1-n1cnc(Cn2nc(-c3ccc(Cl)cc3)n(C[C@H](O)C(F)(F)F)c2=O)n1 [Example 46]	IC50	1.57 µM
O=C1NCCN1CCNc1ccncc1-n1cnc(Cn2nc(-c3ccc(Cl)cc3)n(C[C@H](O)C(F)(F)F)c2=O)n1 [Example 8]	IC50	3 µM
Cc1ccncc1NC(=O)c1ccccc1-n1cnc(Cn2nc(-c3ccc(Cl)cc3)n(C[C@H](O)C(F)(F)F)c2=O)n1 [Example 313]	IC50	0.915 µM
O=C1CCC(CNc2ccncc2-n2cnc(Cn3nc(-c4ccc(Cl)cc4)n(C[C@H](O)C(F)(F)F)c3=O)n2)N1 (mixture of isomers) [Example 7]	IC50	3.85 µM
O=C(c1ccccc1-n1cnc(Cn2nc(-c3ccc(Cl)cc3)n(C[C@H](O)C(F)(F)F)c2=O)n1)N1CCCCCCC1 [Example 359]	IC50	0.9 µM
CCN(C)C(=O)c1ccccc1-n1cnc(Cn2nc(-c3ccc(Cl)cc3)n(C[C@H](O)C(F)(F)F)c2=O)n1 [Example 295]	IC50	0.077 µM
CC(C)(C)OC(=O)CCNc1ccncc1-n1cnc(Cn2nc(-c3ccc(Cl)cc3)n(C[C@H](O)C(F)(F)F)c2=O)n1 [Example 19]	IC50	2.25 µM

The record that follows has no IC50 shown yet.
Exam item: Suppose we examine the compound CCC(C)NC(=O)c1ccccc1-n1cnc(Cn2nc(-c3ccc(Cl)cc3)n(C[C@H](O)C(F)(F)F)c2=O)n1 (mixture of isomers) [Example 204] ; what IC50 value has been reported?
Marked response: 0.115 µM
